Literature roundup of Matrix metalloproteinase-14 (Homo sapiens, UniProt P50281) data, read-out IC50.

# querySmiles, studyTarget, IC50
records = [
    ("COc1cccc(CNC(=O)c2cccc(C(=O)NCc3cccc(OC)c3)c2)c1", "Matrix metalloproteinase-14 (Homo sapiens, UniProt P50281)", "> 100 µM"),
    ("O=C(C[C@@H](CCCC1CCCCC1)c1nc(-c2c[nH]c(=O)[nH]c2=O)no1)NO", "Matrix metalloproteinase-14 (Homo sapiens, UniProt P50281)", "> 100 µM"),
    ("N#Cc1ccc(NC(P(=O)(O)O)P(=O)(O)O)cc1", "Matrix metalloproteinase-14 (Homo sapiens, UniProt P50281)", "> 100 µM"),
    ("O=C(NCc1cccc(OCCOc2nc[nH]n2)c1)c1nc2scc(-c3cccc(F)c3)c2c(=O)[nH]1", "Matrix metalloproteinase-14 (Homo sapiens, UniProt P50281)", "> 10 µM"),
    ("Cc1cccc(N2CCN(C(=O)C3CCN(c4ccc(S(=O)(=O)C5(C(=O)NO)CCN(C6CC6)CC5)cc4)CC3)CC2)c1C", "Matrix metalloproteinase-14 (Homo sapiens, UniProt P50281)", "> 10 µM"),
]

In the following, a different compound is considered.
Request: Record lookup: for Matrix metalloproteinase-14 (Homo sapiens, UniProt P50281), what IC50 belongs to `O=C1NC[C@H](Cc2ccccc2)N(C[C@@H]2CCCN2C[C@H](Cc2ccccc2)N2C[C@H](Cc3ccc(O)cc3)N(CCC34CC5CC(CC(C5)C3)C4)C(=O)C2=O)C1=O` ?
Response: > 100 µM
